system: 922993-354-T-J3-PDC complex spheroids, viability, % test/control; experiment: Anticancer human tumor 922993-354-T-J3-PDC patient-derived endometrial carcinoma cell line growth inhibition [CLK]; conditions: second compound 10 µM; first compound 0.316 µM; active compounds read low
readoutType: viability, T/C (%)
Give bare numbers, in %.

1. CC(Nc1ccc2c(c1)OCCn1cc(N3C(=O)OCC3C(F)F)nc1-2)C(N)=O (stereo not drawn) + CNC(=O)c1ccc(Nc2nc(OC3CCCC3)c3c(-c4ccc5nc(C)oc5c4)c[nH]c3n2)c(OC)c1 = 21.5
2. CCc1c2c(nc3ccc(O)cc13)-c1cc3c(c(=O)n1C2)COC(=O)[C@]3(O)CC + CNC(=O)c1ccc(Nc2nc(OC3CCCC3)c3c(-c4ccc5nc(C)oc5c4)c[nH]c3n2)c(OC)c1 = 16.5

Fill in: viability, T/C of CCN1CCN(Cc2ccc(Nc3ncc(F)c(-c4cc(F)c5nc(C)n(C(C)C)c5c4)n3)nc2)CC1 + CNC(=O)c1ccc(Nc2nc(OC3CCCC3)c3c(-c4ccc5nc(C)oc5c4)c[nH]c3n2)c(OC)c1 is ___
38.4

* * *

Consider the following compounds; for each one, report its viability, T/C.
test system: 922993-354-T-J3-PDC complex spheroids, viability, % test/control; assay: Anticancer human tumor 922993-354-T-J3-PDC cell line growth inhibition [CLK]; settings: second compound 0.1 µM; first compound 1 µM; active compounds read low;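 further: spheroids exposed to the agents for 7 days before readout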
Answers are plain numbers, in %.

1) Nc1ccccc1NC(=O)c1ccc(CNC(=O)OCc2cccnc2)cc1 + CN1CCN(c2cc(C(=O)Nc3cc4cc(-c5cnn(C)c5)ccc4cn3)ccn2)CC1 = 60.1

For every listed record, write down its viability, T/C.
1. COc1ccc([C@@H](O)c2cc(-c3ncnc4cc(N5CCOCC5)ccc34)c(F)cc2Cl)nn1 + CNC(=O)c1ccc(Nc2nc(OC3CCCC3)c3c(-c4ccc5nc(C)oc5c4)c[nH]c3n2)c(OC)c1
2. Nc1ccn(C2OC(CO)C(O)C2(F)F)c(=O)n1 (stereo not drawn) + CN1CCN(c2cc(C(=O)Nc3cc4cc(-c5cnn(C)c5)ccc4cn3)ccn2)CC1

1. 125
2. 17.2

* * *

system: 922993-354-T-J3-PDC complex spheroids, viability, % test/control; assay: Anticancer human tumor 922993-354-T-J3-PDC cell line growth inhibition [CLK]; details: second compound 10 µM; first compound 0.316 µM; active compounds read low;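 further: spheroids exposed to the agents for 7 days before readout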
readoutType: viability, T/C (%)
One number for each entry, in %.

1. COc1cccc2c1C(=O)c1c(O)c3c(c(O)c1C2=O)CC(O)(C(=O)CO)CC3OC1CC(N)C(O)C(C)O1 (stereo not given) + CNC(=O)c1ccc(Nc2nc(OC3CCCC3)c3c(-c4ccc5nc(C)oc5c4)c[nH]c3n2)c(OC)c1 = 16.8
2. COC1C=CCC(C)C(C)S(=O)(=O)NC(=O)c2ccc3c(c2)N(CC2CCC21)CC1(CCCc2cc(Cl)ccc21)CO3 (stereo not given) + CNC(=O)c1ccc(Nc2nc(OC3CCCC3)c3c(-c4ccc5nc(C)oc5c4)c[nH]c3n2)c(OC)c1 = 23.3
3. CC1COCCN1c1cc(C2(S(C)(=N)=O)CC2)nc(-c2ccnc3[nH]ccc23)n1 (stereo not given) + CN1CCN(c2cc(C(=O)Nc3cc4cc(-c5cnn(C)c5)ccc4cn3)ccn2)CC1 = 1.4
4. CC(CO)NC(=O)c1cc(-c2ccc(Cl)cc2)nn(-c2cnn(C)c2)c1=O (stereo not given) + CN1CCN(c2cc(C(=O)Nc3cc4cc(-c5cnn(C)c5)ccc4cn3)ccn2)CC1 = 2
5. O=c1[nH]cc(F)c(=O)[nH]1 + CNC(=O)c1ccc(Nc2nc(OC3CCCC3)c3c(-c4ccc5nc(C)oc5c4)c[nH]c3n2)c(OC)c1 = 29
6. O=c1[nH]cc(F)c(=O)[nH]1 + CN1CCN(c2cc(C(=O)Nc3cc4cc(-c5cnn(C)c5)ccc4cn3)ccn2)CC1 = 0.93
7. C=CC(=O)N1CCN(c2nc(=O)n(-c3c(C)ccnc3C(C)C)c3nc(-c4c(O)cccc4F)c(F)cc23)C(C)C1 (stereo not given) + CNC(=O)c1ccc(Nc2nc(OC3CCCC3)c3c(-c4ccc5nc(C)oc5c4)c[nH]c3n2)c(OC)c1 = 31.9
8. CCCS(=O)(=O)Nc1ccc(F)c(C(=O)c2c[nH]c3ncc(-c4ccc(Cl)cc4)cc23)c1F + CNC(=O)c1ccc(Nc2nc(OC3CCCC3)c3c(-c4ccc5nc(C)oc5c4)c[nH]c3n2)c(OC)c1 = 27.4
9. CC1(C)CCC(CN2CCN(c3ccc(C(=O)NS(=O)(=O)c4ccc(NCC5CCOCC5)c([N+](=O)[O-])c4)c(Oc4cnc5[nH]ccc5c4)c3)CC2)=C(c2ccc(Cl)cc2)C1 + CNC(=O)c1ccc(Nc2nc(OC3CCCC3)c3c(-c4ccc5nc(C)oc5c4)c[nH]c3n2)c(OC)c1 = 26

Recorded viability, T/C for COc1ccc([C@@H](O)c2cc(-c3ncnc4cc(N5CCOCC5)ccc34)c(F)cc2Cl)nn1 + CN1CCN(c2cc(C(=O)Nc3cc4cc(-c5cnn(C)c5)ccc4cn3)ccn2)CC1 , please?
1.47

* * *

test system: 922993-354-T-J3-PDC complex spheroids, viability, % test/control; assay: Anticancer human tumor 922993-354-T-J3-PDC cell line growth inhibition [CLK]; conditions: second compound 3.16 µM; first compound 0.00316 µM; active compounds read low;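 further: spheroids exposed to the agents for 7 days before readout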
Lab note: anything with viability, T/C below 30% is marked class 1; values at 30% or higher are marked class 0.

Quick check: viability, T/C of CCc1c2c(nc3ccc(O)cc13)-c1cc3c(c(=O)n1C2)COC(=O)[C@]3(O)CC + CNC(=O)c1ccc(Nc2nc(OC3CCCC3)c3c(-c4ccc5nc(C)oc5c4)c[nH]c3n2)c(OC)c1 under 30%?
class 0

Can you handle Cn1ncnc1[C@H]1c2n[nH]c(=O)c3cc(F)cc(c23)N[C@@H]1c1ccc(F)cc1 + CN1CCN(c2cc(C(=O)Nc3cc4cc(-c5cnn(C)c5)ccc4cn3)ccn2)CC1 next?
class 1

Also COc1c(OCCCN2CCOCC2)ccc2c3n(c(=NC(=O)c4cnc(N)nc4)nc12)CCN3 + CN1CCN(c2cc(C(=O)Nc3cc4cc(-c5cnn(C)c5)ccc4cn3)ccn2)CC1 ?
class 1

Now this one: CCc1c2c(nc3ccc(O)cc13)-c1cc3c(c(=O)n1C2)COC(=O)[C@]3(O)CC + CN1CCN(c2cc(C(=O)Nc3cc4cc(-c5cnn(C)c5)ccc4cn3)ccn2)CC1
class 1

* * *

system: 922993-354-T-J3-PDC complex spheroids, viability, % test/control; experiment: Anticancer human tumor 922993-354-T-J3-PDC cell line growth inhibition [CLK]; conditions: second compound 3.16 µM; first compound 10 µM; active compounds read low;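 further: spheroids exposed to the agents for 7 days before readout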
For each entry below, report its viability, T/C value.
Answers are plain numbers, in %.

Field: example entries. Status: answers known.
1) CC(=O)O[C@H]1C(=O)[C@@]2(C)[C@H]([C@H](OC(=O)c3ccccc3)[C@]3(O)C[C@H](OC(=O)[C@H](O)[C@@H](NC(=O)c4ccccc4)c4ccccc4)C(C)=C1C3(C)C)[C@]1(OC(C)=O)CO[C@@H]1C[C@@H]2O + CN1CCN(c2cc(C(=O)Nc3cc4cc(-c5cnn(C)c5)ccc4cn3)ccn2)CC1 = 0.11
2) CCCS(=O)(=O)Nc1ccc(F)c(C(=O)c2c[nH]c3ncc(-c4ccc(Cl)cc4)cc23)c1F + CN1CCN(c2cc(C(=O)Nc3cc4cc(-c5cnn(C)c5)ccc4cn3)ccn2)CC1 = 1.32
3) CC(=O)O[C@H]1C(=O)[C@@]2(C)[C@H]([C@H](OC(=O)c3ccccc3)[C@]3(O)C[C@H](OC(=O)[C@H](O)[C@@H](NC(=O)c4ccccc4)c4ccccc4)C(C)=C1C3(C)C)[C@]1(OC(C)=O)CO[C@@H]1C[C@@H]2O + CNC(=O)c1ccc(Nc2nc(OC3CCCC3)c3c(-c4ccc5nc(C)oc5c4)c[nH]c3n2)c(OC)c1 = 39.9

Fill in viability, T/C for each of the 7 molecules listed.
1. O=c1[nH]cc(F)c(=O)[nH]1 + CNC(=O)c1ccc(Nc2nc(OC3CCCC3)c3c(-c4ccc5nc(C)oc5c4)c[nH]c3n2)c(OC)c1
2. CC(Nc1ccc2c(c1)OCCn1cc(N3C(=O)OCC3C(F)F)nc1-2)C(N)=O (stereo not given) + CNC(=O)c1ccc(Nc2nc(OC3CCCC3)c3c(-c4ccc5nc(C)oc5c4)c[nH]c3n2)c(OC)c1
3. O=C(c1cc(Cc2n[nH]c(=O)c3ccccc23)ccc1F)N1CCN(C(=O)C2CC2)CC1 + CN1CCN(c2cc(C(=O)Nc3cc4cc(-c5cnn(C)c5)ccc4cn3)ccn2)CC1
4. COC1C=CCC(C)C(C)S(=O)(=O)NC(=O)c2ccc3c(c2)N(CC2CCC21)CC1(CCCc2cc(Cl)ccc21)CO3 (stereo not given) + CN1CCN(c2cc(C(=O)Nc3cc4cc(-c5cnn(C)c5)ccc4cn3)ccn2)CC1
5. CC(CO)NC(=O)c1cc(-c2ccc(Cl)cc2)nn(-c2cnn(C)c2)c1=O (stereo not given) + CN1CCN(c2cc(C(=O)Nc3cc4cc(-c5cnn(C)c5)ccc4cn3)ccn2)CC1
6. Nc1ccccc1NC(=O)c1ccc(CNC(=O)OCc2cccnc2)cc1 + CN1CCN(c2cc(C(=O)Nc3cc4cc(-c5cnn(C)c5)ccc4cn3)ccn2)CC1
7. C#Cc1c(F)ccc2cc(O)cc(-c3ncc4c(N5CC6CCC(C5)N6)nc(OCC56CCCN5CC(F)C6)nc4c3F)c12 (stereo not given) + CN1CCN(c2cc(C(=O)Nc3cc4cc(-c5cnn(C)c5)ccc4cn3)ccn2)CC1

20.8
10.8
1.13
0.89
0.14
1.23
2.87
